The measured values listed here are drawn from paper PMC5540273.

Tested on: AMPK-alpha1
Construct: gene PRKAA1
Condition: concentration: 1 μM,replicates: in singlicate; n = 1;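 note: KINOMEscan kinase panel screen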
Item-by-item account of %Inh
Endpoint Label: %Inh (%)

>>> df
                                    compound  measured_number
 0  CN(C)CCOc1ccc(-c2cc(-c3c[nH]nc3-c3ccccn3)ccn2)cc1               34
 1  O=C(NCCNc1ccnc(NCc2ccc(F)cc2)n1)c1cc2ccccc2s1                0
 2  C[C@@H]1CCN(C(=O)CC#N)C[C@@H]1N(C)c1ncnc2[nH]ccc12                0
 3  Cc1ccc2c(-c3ccncc3)c(-c3ccc(F)cc3)nn2c1.Cl               11
 4  Cl.Oc1cc(-c2nc(-c3ccccc3)[nH]c2-c2ccncc2)ccc1Cl                3
 5  Cc1n[nH]c2ccc(-c3cc(OC[C@@H](N)Cc4ccccc4)cnc3-c3ccoc3)cc12.O=C(O)C(F)(F)F.O=C(O)C(F)(F)F                0
 6  Cl.Cl.NC[C@H](Cc1ccc(C(F)(F)F)cc1)NC(=O)c1cc(Br)c(-c2ccnc3[nH]ccc23)s1               78
 7  C[C@H]1Oc2cc(cnc2N)-c2c(nn(C)c2C#N)CN(C)C(=O)c2ccc(F)cc21               29
 8  CC(C)N1C(=O)Cc2cc(Nc3ncc(C(F)(F)F)c(NCc4cccc(S(C)(=O)=O)c4)n3)ccc21                0
 9  COc1ccc(C[C@@H](CN)NC(=O)c2cc(Br)c(-c3ccnc4[nH]ccc34)s2)cc1.Cl.Cl             91.4
10  CCN(CC)CCCCNc1ncc2cc(-c3c(Cl)cccc3Cl)c(NC(=O)NC(C)(C)C)nc2n1               18
11  C=CC(=O)Nc1cc2c(Nc3ccc(F)c(Cl)c3)ncnc2cc1OCCCN1CCOCC1                0
12   CC(C)Nc1cc(-c2ccc3c(N)n[nH]c3c2)nc(N)n1                0
13  Cl.Cl.Nc1nc(-c2ccc3c(N)n[nH]c3c2)cc(N2CCCC(NC(=O)c3ccccc3)C2)n1 (centres unmarked)                0

* * *

Test system: STK35
Condition: concentration: 1 μM,replicates: in singlicate; n = 1
Entries annotated with measured %Inh
Endpoint Label: %Inh (%)

                                   compound  measured_on  measured_number
0  C[C@@H]1CCN(C(=O)CC#N)C[C@@H]1N(C)c1ncnc2[nH]ccc12        STK35                0
1  COc1ccc(C[C@@H](CN)NC(=O)c2cc(Br)c(-c3ccnc4[nH]ccc34)s2)cc1.Cl.Cl        STK35               14
2  CN(C)CC(O)COc1ccc(Nc2nccc(-c3cnn4nc(N5CCOCC5)ccc34)n2)cc1 (centres unmarked)        STK35                5
3  CCN(CC)CCCCNc1ncc2cc(-c3c(Cl)cccc3Cl)c(NC(=O)NC(C)(C)C)nc2n1        STK35               15
4  Cc1cc(C(=O)Nc2ccc(Oc3ccc4nc(NC(=O)C5CC5)cn4n3)cc2)nn1-c1ccccc1        STK35                0
5  Cc1n[nH]c2ccc(-c3cc(OC[C@@H](N)Cc4ccccc4)cnc3-c3ccoc3)cc12.O=C(O)C(F)(F)F.O=C(O)C(F)(F)F        STK35             95.9
6  C[C@H]1Oc2cc(cnc2N)-c2c(nn(C)c2C#N)CN(C)C(=O)c2ccc(F)cc21        STK35                1
7  Cl.Cl.Nc1nc(-c2ccc3c(N)n[nH]c3c2)cc(N2CCCC(NC(=O)c3ccccc3)C2)n1 (centres unmarked)        STK35                0
